// molecules with pIC50 on Serine/threonine-protein kinase Nek2 (Homo sapiens), multi-source literature
- tgt: Serine/threonine-protein kinase Nek2 (Homo sapiens)
- Sequence (P51955 whole entry): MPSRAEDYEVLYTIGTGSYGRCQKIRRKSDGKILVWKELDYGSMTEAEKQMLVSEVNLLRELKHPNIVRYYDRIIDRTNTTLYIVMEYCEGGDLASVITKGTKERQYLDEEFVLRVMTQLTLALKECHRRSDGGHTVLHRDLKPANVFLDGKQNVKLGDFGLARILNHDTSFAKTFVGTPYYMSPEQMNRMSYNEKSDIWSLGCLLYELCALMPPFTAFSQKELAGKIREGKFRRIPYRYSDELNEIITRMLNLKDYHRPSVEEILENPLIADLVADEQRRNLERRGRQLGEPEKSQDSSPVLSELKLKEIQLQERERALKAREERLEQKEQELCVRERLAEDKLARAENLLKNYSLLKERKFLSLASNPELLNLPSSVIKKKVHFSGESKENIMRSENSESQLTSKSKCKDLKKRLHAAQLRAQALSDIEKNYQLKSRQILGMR
pIC50: −log10 of the molar value.

Some molecules with recorded pIC50:
C#CC(=O)Nc1ccc2c(c1)/C(=C/c1[nH]c(CC)nc1C)C(=O)N2C	< 4.70
CCCNC(=O)c1ccc(Nc2nc(NCC(F)(F)F)c3cc[nH]c3n2)cc1	< 5.00
COCc1c(C)c(O)c(O)c(O)c1C=O	< 4.52
Cc1n[nH]c2cc(Nc3nc(NC4CC4)c4occc4n3)ccc12	< 5.00
CCc1nc(C)c(/C=C2\C(=O)Nc3ccc(C(C)=O)cc32)[nH]1	< 4.70

Now for another entry.
Given `Clc1ccc(-c2ccc(-c3nccn3-c3ccc(N4CCNCC4)cc3)o2)cc1` , state its recorded pIC50.
< 4.52
